testedTarget: 1-aminocyclopropane-1-carboxylate oxidase 1 (Malus domestica)
Sequence (Q00985 whole entry): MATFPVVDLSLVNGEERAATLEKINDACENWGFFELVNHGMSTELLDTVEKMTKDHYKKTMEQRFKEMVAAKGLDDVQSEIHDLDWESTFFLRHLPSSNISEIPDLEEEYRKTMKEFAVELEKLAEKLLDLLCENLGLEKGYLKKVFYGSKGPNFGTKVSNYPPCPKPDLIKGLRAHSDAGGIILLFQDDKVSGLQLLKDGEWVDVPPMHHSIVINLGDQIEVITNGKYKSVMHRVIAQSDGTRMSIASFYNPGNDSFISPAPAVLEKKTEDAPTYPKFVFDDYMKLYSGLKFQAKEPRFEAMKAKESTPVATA
parameterMeasured: Ki (µM)
State just the number; it will be interpreted in µM.

O=C(O)C1(NO)CCC1 [N-Hydroxyaminocyclobutanecarboxylic acid]; 18

// sample CC(C)(NO)C(=O)O [N-hydroxy aminoisobutryic acid] , its Ki was 13
